# Lookup of reported viability increase keyed by entry
# assay remarks: doxorubicin toxicity protection in MRP-1 cells – H69AR cells, CellTiter-Glo, duplicate, MRP-1 activator project, pilot screen (AID 807);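 note: compound pretreatment 18-22 h then 72 h combined with doxorubicin; 0% = doxorubicin alone and 100% = vehicle without doxorubicin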
# cond: H69AR viability with doxorubicin, CellTiter-Glo luminescence; at 10 µM; stronger effect = higher value
Response body: numeric value in %, unit text excluded.

The examples below pair each entry with its known result.
O=C(O)CC(NC(=O)OCc1ccccc1)c1ccccc1 (stereo not drawn) :: -1.78
CCCCOCCCNC(=O)COc1ccccc1 :: -1.43

Consider now this further compound.
Exercise: Using the record for `Cn1c(=O)c(=O)n(C)c2cc(S(=O)(=O)CCC(=O)N3CCOCC3)ccc21` , report its viability increase.
Solution: -2.26

---

Quick list: viability per entry.
# assay remarks: H69AR cell proliferation blockers – human, duplicate replicates, primary screen (AID 580);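 note: 100% = mean luminescence of untreated wells and 0% = no signal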
# cond: H69AR lung tumor cells viability, ATP luminescence, 72 h; at 10 µM; stronger effect = lower value
Give the quantity in %, number only.

Worked examples, 6 compounds total:
COc1ccc(C2CC(c3ccco3)n3ncnc3N2)cc1 (stereo not drawn) :: 95.4
Cc1cc2ncc(-c3ccc(Cl)cc3)c(N)n2n1 :: 82.7
COc1ccc(C)cc1NC(=O)CNC(=O)Cn1ccc2ccccc2c1=O :: 92.8
O=C(CSc1nnc2ccccn12)c1ccccc1 :: 94.5
Cn1c(C(=O)Nc2ccc3c(c2)OCO3)cc2c(=O)n(C)c3ccccc3c21 :: 34.2
O=C(CCN1C(=O)c2ccccc2C1=O)NCCN1CCOCC1 :: 95.3

Exercise: Requested field: viability. Item: `Cc1cc(C)n2nc(SCc3nc4ccccc4[nH]3)nc2n1`
Solution: 95.7

Exercise: # query: viability of entry CN1CCc2c(sc3c2C(=O)NC(c2cccc(OC(=O)c4cccs4)c2)N3)C1 (stereo not drawn)
Solution: 85.6

---

# assay remarks: growth suppression of yeast trafficking mutant, preliminary HTS, modulators of trafficking downstream of Golgi apparatus project, 1536-format plate, OD 615 nm (AID 637)
# cond: yeast transport mutant growth, absorbance 615 nm, 18 h; stronger effect = higher value
value kind: inhibition (%)
Give just the numeric value; % need not be written.

Cc1cccc(C(=O)N2CCN(C(=O)c3cccc(C)c3)C(C)C2)c1 (stereo not drawn) :: 24.8

Exercise: What does the data say about its inhibition? Entry: COc1cccc(-c2nc3n(n2)C(c2ccccc2Cl)C(C(N)=O)=C(C)N3)c1 (stereo not drawn)
Solution: -5.17

Exercise: Query: inhibition; subject: `O=C(c1ccc(CSCc2ccccc2F)o1)N1CCN(c2ccc(N3CCOCC3)nn2)CC1`
Solution: -0.17

---

Each item that follows carries a reported viability.
# assay remarks: MRP1 drug-resistance reversers in H69AR cells – cell-based, doxorubicin co-treatment, pilot screen (AID 601)
# cond: H69AR cells + 2 uM doxorubicin, CellTiter-Glo, 72 h; measured here: viability with 2 uM doxorubicin; at 10 µM; stronger effect = lower value
Answer with a number only, understood to be in %.

O=C1CC(c2ccco2)CC(O)=C1C=NCCN1CCNCC1 (centres undefined) :: 92.3
CC(=O)N1c2c(cc(Br)cc2S(=O)(=O)N2CCN(c3ccccn3)CC2)CC1C (centres undefined) :: 90.2
COc1cc(NC(=O)c2nccnc2C(=O)O)cc(OC)c1 :: 90.6
Cc1cccc(CN2CCC(CNC(=O)C3CCCN(S(=O)(=O)c4cnc[nH]4)C3)CC2)c1 (centres undefined) :: 87.6
COc1ccc2c(c1OC)C(=O)OC2CC(=O)c1ccc(O)cc1 (centres undefined) :: 90.4
COc1ccc(-n2c(Cc3cccn3C)nnc2SCC(=O)Nc2cccc(Cl)c2)cc1 :: 87.6
COC(=O)C1=C(C)NC2=C(C(=O)CCC2)C1c1coc2ccccc2c1=O (centres undefined) :: 90.9
O=C(CCn1[nH]c(=O)c2ccccc2c1=O)NCCO :: 91.9

Alright, here's another molecule for you.
Exercise: What does the record list as viability for `Cc1cccc(-n2ncc3c(NCc4cccnc4)ncnc32)c1` ?
Solution: 91.2
